The reader will find IC50 measurements below, all made with GID4 (Uniprot ID: Q81VV7, residues 124-289) (Homo sapiens).

Item: Nc1nc(NC2CC2)cc(N2CCNC(c3ccccc3Br)C2)n1 (single isomer, unassigned) Test system: GID4 (Uniprot ID: Q81VV7, residues 124-289) (Homo sapiens) Read-out: IC50 Value: ? > 5 µM

Item: Nc1cc(N2CCCC(c3cnc4ccncn34)C2)nc(N)n1 (centres unmarked) Test system: GID4 (Uniprot ID: Q81VV7, residues 124-289) (Homo sapiens) Read-out: IC50 Value: ? 0.5 to 5 µM

Item: `CC(C)c1cc(N(C)CCc2c[nH]c3ccccc23)nc(N)n1` Test system: GID4 (Uniprot ID: Q81VV7, residues 124-289) (Homo sapiens) Read-out: IC50 Value: ? 0.5 to 5 µM

Item: `Cc1c(-c2ccc(C(=O)NCCCN(C)C)cc2)cc(O)c2ncccc12` Test system: GID4 (Uniprot ID: Q81VV7, residues 124-289) (Homo sapiens) Read-out: IC50 Value: ? 0.5 to 5 µM

Item: Nc1cc(N2CCCC(O)(c3ccccc3Br)C2)nc(N)n1 (centres unmarked) Test system: GID4 (Uniprot ID: Q81VV7, residues 124-289) (Homo sapiens) Read-out: IC50 Value: ? 0.5 to 5 µM

====

The reader will find IC50 measurements below, all made with GID4 (Uniprot ID: Q81VV7, residues 124-289) (Homo sapiens, UniProt Q8IVV7).

// IC50 lookup, key: CN(C)CCNC(=O)c1ccc(-c2cc(O)c3ncncc3c2)cc1 [Compound 270] < 500 nM

// IC50 lookup, key: CN(C)CCNC(=O)c1ccc(-c2cc(O)c3ncccc3c2)cc1 [Compound 299] < 500 nM

// IC50 lookup, key: Nc1cc(N2CCN(CCO)[C@H](c3ccccc3Br)C2)nc(N)n1 (stereo in doubt) [Compound 67] 500 to 5000 nM

// IC50 lookup, key: CN(C)CCCNC(=O)c1ccc(-c2cc(O)c3nc(N)ccc3c2)cc1 [Compound 261] < 500 nM

// IC50 lookup, key: CN1CCN(c2ccc(Br)c(C3CN(c4cc(N)nc(N)n4)CCN3)c2)CC1 (single isomer, unassigned) [Compound 50] < 500 nM

// IC50 lookup, key: CC(C)c1nc(N)cc(N2CCNC(c3ccccc3Br)C2)n1 (single isomer, unassigned) [Compound 76] < 500 nM

// IC50 lookup, key: CN1CCC(CNC(=O)c2ccc(-c3cc(O)c4ncccc4c3)cc2)C1 (centres unmarked) [Compound 292] < 500 nM

// IC50 lookup, key: CN(C)CCNC(=O)c1ccc(Br)c(C2CN(c3cc(N)nc(N)n3)CCN2)c1 (centres unmarked) [Compound 9] < 500 nM

// IC50 lookup, key: COc1cc(CNC(=O)c2n[nH]c3ccc(-c4ccc5ccnc(N)c5c4)cc23)ccn1 [Compound 326] < 500 nM

// IC50 lookup, key: CNc1cc(N2CCNC(c3cnc4ccccn34)C2)nc(N)n1 (centres unmarked) [Compound 92] 500 to 5000 nM

// IC50 lookup, key: CC(C)c1cc(N2CCCC(c3ccn[nH]3)C2)nc(N)n1 (centres unmarked) [Compound 210] > 5000 nM

// IC50 lookup, key: Nc1nc(C2CCC2)cc(N2CCCC(c3ccn[nH]3)C2)n1 (centres unmarked) [Compound 212] > 5000 nM

// IC50 lookup, key: Nc1nc(NCC2CC2)cc(N2CCN[C@@H](c3ccccc3Br)C2)n1 (racemic) [Compound 112] < 500 nM

// IC50 lookup, key: CN1CCC(CNC(=O)c2n[nH]c3ccc(-c4ccc5ccnc(N)c5c4)cc23)CC1 [Compound 337] < 500 nM

// IC50 lookup, key: CC(C)c1cc(N2CCNC(c3c[nH]c4ccccc34)C2)nc(N)n1 (centres unmarked) [Compound 138] 500 to 5000 nM

// IC50 lookup, key: Nc1nc(NCC2CC2)cc(N2CCOC(c3ccccc3Br)C2)n1 (single isomer, unassigned) [Compound 78] < 500 nM

// IC50 lookup, key: Oc1cc(C2=CCNCC2)cc2cccnc12 [Compound 324] 500 to 5000 nM

====

pIC50: −log10 of the molar value.
The reader will find pIC50 measurements below, all made with GID4 (Uniprot ID: Q81VV7, residues 124-289) (Homo sapiens).

// pIC50 lookup, key: CC(C)c1cc(N2CCCC(c3ncn4ccccc34)C2)nc(N)n1 (centres unmarked) > 6.30

// pIC50 lookup, key: `CN(C)CCCNC(=O)c1c(Cl)cc(-c2cc(O)c3ncccc3c2)cc1Cl` > 6.30

// pIC50 lookup, key: CC(C)c1cc(N2CCCC(n3cnc4ccccc43)C2)nc(N)n1 (centres unmarked) > 6.30

// pIC50 lookup, key: CC(C)c1cc(N2CCNC(c3cccc(F)c3Br)C2)nc(N)n1 (centres unmarked) > 6.30

// pIC50 lookup, key: Nc1cc(N2CCOC(c3ccccc3C(F)(F)F)C2)nc(N)n1 (centres unmarked) > 6.30

// pIC50 lookup, key: CC(C)c1cc(N2CCNC(c3ccccc3Cl)C2)nc(N)n1 (centres unmarked) 5.30 to 6.30

// pIC50 lookup, key: Nc1nc2c(c(N3CCCC(c4ccn[nH]4)C3)n1)CCC2 (centres unmarked) < 5.30

// pIC50 lookup, key: `CC(C)c1cc(-c2cc(-c3ccnn3C)c3ccnc(-c4cc[nH]n4)c3n2)cc(N)n1` 5.30 to 6.30

// pIC50 lookup, key: `CN1CCC(NC(=O)c2cccc(-c3ccc4ccnc(N)c4c3)c2)CC1` 5.30 to 6.30

// pIC50 lookup, key: Nc1cc(N2CCCC(c3cnc4ncccn34)C2)nc(N)n1 (centres unmarked) < 5.30

// pIC50 lookup, key: CC(C)c1cc(N2CCNC(c3cnc4ccccn34)C2)c2cc[nH]c2n1 (racemic) > 6.30

// pIC50 lookup, key: Nc1cc(N2CCCC(c3n[nH]c4ccccc34)C2)nc(N)n1 (centres unmarked) 5.30 to 6.30

// pIC50 lookup, key: `Nc1nccc2ccc(-c3ccc4[nH]cnc4c3)cc12` 5.30 to 6.30

// pIC50 lookup, key: CNc1cc(N2CCCC(c3cnc4ccccn34)C2)nc(C(C)C)n1 (single isomer, unassigned) 5.30 to 6.30

// pIC50 lookup, key: Nc1nc(NC2CC2)nc(N2CCN[C@H](c3ccccc3Br)C2)n1 (stereo in doubt) < 5.30

// pIC50 lookup, key: `Nc1nccc2ccc(-c3cc(C(=O)N4CCCC4)cc4c3CCCC4)cc12` 5.30 to 6.30

// pIC50 lookup, key: Nc1nc(NC2CC2)cc(N2CCN[C@@H](c3ccccc3Br)C2)n1 (racemic) > 6.30

// pIC50 lookup, key: Nc1nc(C2CC2)cc(N2CCCC(c3ccn[nH]3)C2)n1 (centres unmarked) < 5.30

// pIC50 lookup, key: CC(C)c1cc(N2CCN(C)C(c3cnc4ccccn34)C2)nc(N)n1 (racemic) > 6.30

// pIC50 lookup, key: `CN(C)CCCNC(=O)c1cccc(-c2ccc3ccnc(N)c3c2)c1` < 5.30

// pIC50 lookup, key: Nc1cc(N2CCN[C@@H](c3cc(C(F)(F)F)ccc3Br)C2)nc(N)n1 (racemic) > 6.30

// pIC50 lookup, key: CN1CCN(c2cc(NCC3CC3)nc(N)n2)C[C@@H]1c1ccccc1Br (racemic) < 5.30

// pIC50 lookup, key: CNc1nc(N)cc(N2CCCC(c3ccccc3Br)C2)n1 (centres unmarked) 5.30 to 6.30

// pIC50 lookup, key: `CN(C)CCNC(=O)c1csc2ccc(-c3ccc4ccnc(N)c4c3)cc12` 5.30 to 6.30

// pIC50 lookup, key: `CN(C)CCCNC(=O)c1ccc(-c2cc(O)c3nccnc3c2)cc1` > 6.30

// pIC50 lookup, key: Nc1cc(N2CCNC(c3cc(C(F)(F)F)ccc3Br)C2)nc(N)n1 (single isomer, unassigned) 5.30 to 6.30

// pIC50 lookup, key: CC(C)c1cc(N2CCCC(O)(c3ncn4ccccc34)C2)nc(N)n1 (centres unmarked) < 5.30

// pIC50 lookup, key: `Nc1nccc2ccc(-c3ccc4[nH]nc(C(=O)NCCO)c4c3)cc12` > 6.30

// pIC50 lookup, key: `CN(C)CCNC(=O)c1c2cc(-c3ccc4ccnc(N)c4c3)ccc2nn1C` < 5.30

// pIC50 lookup, key: `CN(C)[C@H]1CC[C@@H](NC(=O)c2ccc(-c3cc(O)c4ncccc4c3)cc2)CC1` > 6.30

// pIC50 lookup, key: CC(C)c1cc(N2CCN[C@@H](c3cnc4ccccn34)C2)c2nc[nH]c2n1 (stereo in doubt) 5.30 to 6.30

// pIC50 lookup, key: `CN(C)CCNC(=O)c1n[nH]c2ccc(-c3ccc4ccnc(N)c4c3)nc12` 5.30 to 6.30

// pIC50 lookup, key: CC(C)c1cc(N2CCCC(c3nn(C)c4ccccc34)C2)nc(N)n1 (centres unmarked) 5.30 to 6.30

// pIC50 lookup, key: CCc1ccccc1C1CN(c2cc(C(C)C)nc(N)n2)CCN1 (centres unmarked) 5.30 to 6.30

// pIC50 lookup, key: CNc1cc(N2CCN(C)[C@@H](c3ccccc3Br)C2)nc(NC)n1 (stereo in doubt) 5.30 to 6.30
